Recorded GI50 by entry
tested on: HCT-116; experiment: NCI tumour cell line growth inhibition, 48 h
The source made the active and inactive calls. No stated cut-off is given here; in the data, active = GI50 up to about 1.1 µM and inactive = higher.

Guide cases for GI50, answers given:
[
  {
    "molecule": "O=C(ON=c1c2ccccc2ccc2ccccc12)c1ccccc1",
    "GI50": "13.9 µM (inactive)"
  },
  {
    "molecule": "CN(C)/C=N/c1ccc2[nH]c3ccccc3c2c1",
    "GI50": "34.6 µM (inactive)"
  },
  {
    "molecule": "O=S(=O)(O)C1=C2Sc3ccccc3N=C2c2ccccc2C1",
    "GI50": "15.2 µM (inactive)"
  },
  {
    "molecule": "C[Si](C)(C)C#CCO[Si](C)(C)C",
    "GI50": "65 µM (inactive)"
  }
]

Consider now this further molecule.
Entry Cc1cccc(-c2nnc(S)[nH]2)c1 , system HCT-116: what GI50 was measured? > 100 µM (inactive)

---

test system: Malme-3M; test: NCI tumour cell line growth inhibition, 48 h
Activity calls are given as the source filed them. Cut-off read from the data, not from the text of the source: active = GI50 up to about 1.1 µM and inactive = higher.
observedProperty: GI50

Guide cases for GI50, answers given:
[
  {
    "compound": "CC1(c2ccc(F)cc2)CC(c2ccc(F)cc2)=C(C#N)C(=C(C#N)C#N)N1 (stereo unspecified)",
    "result": "18.7 µM (inactive)"
  },
  {
    "compound": "[N-]=[N+]=NC(c1cn(C2CC(O)C(CO)O2)c(=O)[nH]c1=O)C(I)I (stereo unspecified)",
    "result": "> 100 µM (inactive)"
  },
  {
    "compound": "CN(C)CCCNC(=O)c1cc(NC(=O)c2cc(NC(=O)[C@@H]3C[C@H]3C(=O)Nc3cc(C(=O)Nc4cc(C(=O)NCCCN(C)C)n(C)c4)n(C)c3)cn2C)cn1C",
    "result": "> 100 µM (inactive)"
  }
]

Entry c1ccc(-c2sc(-c3ccccc3)c3c2C2CCC3C2)cc1 , system Malme-3M: what GI50 was measured? 31.6 µM (inactive)

Do the same for CC(C)[C@@H]1NC(=O)[C@H]2N=C(O[C@@H]2C)[C@@H]2CCCN2C(=O)[C@H](Cc2ccccc2)NC(=O)[C@@H]2CSC(=N2)[C@@H](Cc2ccccc2)NC(=O)[C@@H]2CSC1=N2 please > 50 µM (inactive)

Do the same for Cc1cc(N(CCC#N)CCC#N)ccc1C(/N=N/c1ccc(Cl)cc1)=N\NC(=O)c1cc(Cl)ccc1O please 62.7 µM (inactive)

Do the same for O=[N+]([O-])/C(C(Cl)=C(Cl)Cl)=C(/Nc1ccccc1)SCc1ccccc1 please 16.4 µM (inactive)

Do the same for CN(C)CCCN1c2ccccc2Sc2ccc3ccccc3c21 please 6.49 µM (inactive)

Do the same for O=C(ON=c1c2ccccc2ccc2ccccc12)c1ccccc1 please 22.9 µM (inactive)

Do the same for COc1ccc(CNc2nc(NCc3ccc(OC)c(OC)c3)nc(NC3CCCCC3)n2)cc1 please 37.2 µM (inactive)

Do the same for CSc1nc2c(=O)n(-c3ccccc3)c(=S)n(-c3ccccc3)c2s1 please 64.1 µM (inactive)

---

test system: KM12; assay: NCI tumour cell line growth inhibition, 48 h
Active and inactive are the calls of the source. Rule as the data show it: active = GI50 up to about 1.1 µM and inactive = higher.
Entry note: the call must match one of t = active, f = inactive

Take a look at these entries with their results.
[
  {
    "compound": "Cc1cn2c(/C=N/NC(=N)N)c(-c3cc([N+](=O)[O-])c(Cl)cc3Cl)nc2s1",
    "assignedLabel": "t"
  },
  {
    "compound": "COc1cc(C2C3=C(COC3=O)Oc3cc4c(cc32)OCO4)cc(OC)c1O (stereo not given)",
    "assignedLabel": "t"
  },
  {
    "compound": "C=CC/C=C/C/C=C/CCCCCCCc1cccc(O)c1C(=O)O",
    "assignedLabel": "f"
  },
  {
    "compound": "N#CC12Cc3ccc4c(c3-c3cccc(c31)CCN2C(=O)c1ccccc1)OCO4 (stereo not given)",
    "assignedLabel": "f"
  }
]

Record request — test call for O=C1OC(CN2CCN(c3ccccc3)CC2)CN1C(=S)Nc1ccccc1 (stereo not given) f

Do the same for Cc1ccc(S(=O)(=O)NNS(C)(=O)=O)cc1 please f

Do the same for CCN(CC)CCOC(=O)Cc1cccc2c(=O)cc(-c3ccccc3)oc12 please f

Do the same for Cc1cc2c(=O)cc(-c3ccc(C(F)(F)F)cc3)oc2c(C(=O)O)c1C please f

Do the same for COc1ccccc1C1CC(=O)CC(c2ccccc2OC)C12C(=O)NC(=S)NC2=O (stereo not given) please f

Do the same for Clc1ccc(-c2nn3c(COc4cccc(OCc5nnc6sc(-c7ccc(Cl)cc7)nn56)c4)nnc3s2)cc1 please f

---

tested on: HCC 2998; experiment: NCI tumour cell line growth inhibition, 48 h
The source made the active and inactive calls. Cut-off read from the data, not from the text of the source: active = GI50 up to about 1.1 µM and inactive = higher.
Entry note: the call must match one of active, inactive

[
  {
    "compound": "O=c1[nH]nc(-c2cccc([N+](=O)[O-])c2)[nH]1",
    "assignedLabel": "inactive"
  },
  {
    "compound": "COc1cc(/C=C(\\C)[N+](=O)[O-])cc(OC)c1",
    "assignedLabel": "inactive"
  }
]

Record request — test call for N#C[C@@H](c1nc2ccccc2s1)c1ncccc1[N+](=O)[O-] inactive

---

tested on: UO-31; assay: NCI tumour cell line growth inhibition, 48 h
The source made the active and inactive calls. Cut-off read from the data, not from the text of the source: active = GI50 up to about 1.1 µM and inactive = higher.
Entry note: the call must match one of True (active), False (inactive)

Take a look at these entries with their results.
[
  {
    "compound": "OCC1C2C=CC(O2)[C@H]1CO (stereo partly specified)",
    "targetOfAssay": "UO-31",
    "assignedLabel": "False"
  },
  {
    "compound": "CCOC(=O)c1cccc(NC(=O)CBr)c1",
    "targetOfAssay": "UO-31",
    "assignedLabel": "True"
  },
  {
    "compound": "Nc1nc(Cl)cc(NCC2(O)CC2)n1",
    "targetOfAssay": "UO-31",
    "assignedLabel": "False"
  }
]

Record request — test call for COC(=O)C(C(=O)C(=O)Nc1cccc(O)c1)c1nc2ccc(Cl)cc2nc1O (stereo unspecified) False

Do the same for OB1OCc2ccccc21 please False

Do the same for Cc1cc(S(=O)(=O)[N-]/C(=N/S(=O)(=O)c2cc(Cl)sc2Cl)[n+]2ccc(N(C)C)cc2)c(S)cc1Cl please False

Do the same for CCCCCn1cnc2c1S(=O)(=O)N(C)C(NC(=O)c1ccccc1)=N2 please False

Do the same for COc1nc(C)nc2sc3c(c12)CCCC3 please False

Do the same for COc1cc(C2C(Cl)C(=O)N2NC(=O)c2ccccc2O)cc(OC)c1OC (stereo unspecified) please False

Do the same for CC(C)C(=O)/C=C/S/C=C/C(=O)C(C)C please False

Do the same for COc1cc(C(C)=O)cc(C(=O)N(C(C)C)C(C)C)c1[Si](C)(C)C please False

---

tested on: SNB-19; experiment: NCI tumour cell line growth inhibition, 48 h
Calls of active or inactive are those of the source. Rule as the data show it: active = GI50 up to about 1.1 µM and inactive = higher.
Entry note: the call must match one of T = active, F = inactive

[
  {
    "molecule": "N#CC(C#N)C1CN2CCC1CC2 (stereo not given)",
    "assignedLabel": "F"
  },
  {
    "molecule": "CC1(c2cccc(C(F)(F)F)c2)CC(c2cccc(C(F)(F)F)c2)=C(C#N)C(=C(C#N)C#N)N1 (stereo not given)",
    "assignedLabel": "F"
  },
  {
    "molecule": "Nc1nc(SCc2ccccc2)c2ncn(Cc3ccccc3)c2n1",
    "assignedLabel": "F"
  },
  {
    "molecule": "CN(C)CCCN1c2ccccc2Sc2ccc3ccccc3c21",
    "assignedLabel": "F"
  },
  {
    "molecule": "Clc1ccc2c(NCCCC/N=C/c3ccccc3)ccnc2c1",
    "assignedLabel": "F"
  }
]

Record request — test call for CN(C)C(=S)OC(Cn1cncn1)c1ccc(Cl)cc1Cl (stereo not given) F

Do the same for C=CCOC(=O)CC[N+]1=CCC(c2ccccc2)(c2ccccc2)O1 please F

Do the same for COc1cc([C@@H]2c3cc4c(cc3[C@@H](NC(=O)c3cccc([N+](=O)[O-])c3)C3COC(=O)[C@@H]32)OCO4)cc(OC)c1O (stereo not given in full) please T

Do the same for O=C(O)c1c(CC(Cc2ccc3c(c2)CCCC3)C(=O)O)ccc2c1CCCC2 (stereo not given) please F

Do the same for C=C(Cl)C(=C)CCC(Cl)C(C)(C)Cl (stereo not given) please F

---

Recorded GI50 by entry
test system: Hs-578T; test: NCI tumour cell line growth inhibition, 48 h
Calls of active or inactive are those of the source. Cut-off read from the data, not from the text of the source: active = GI50 up to about 1.1 µM and inactive = higher.

Guide cases for GI50, answers given:
[
  {
    "molecule": "CC(=O)NC1C(CO)O[C@@H]2OC(C)(C)O[C@H]12 (stereo not given in full)",
    "result": "> 100 µM (inactive)"
  },
  {
    "molecule": "O=C1OC(CN2CCN(c3ccccc3)CC2)CN1C(=S)Nc1ccccc1 (stereo not given)",
    "result": "> 100 µM (inactive)"
  }
]

Consider now this further molecule.
Entry O=C(O)c1cc(CC2Cc3cc4c(cc3C2=O)CCC4)cc2c1CCC2 (stereo not given) , system Hs-578T: what GI50 was measured? 48.1 µM (inactive)
